- tested_on: recombinant human PI3Kα (6-His(p110-p85α)) (Homo sapiens (Human), UniProt P42336)
- Sequence (P42336 whole entry): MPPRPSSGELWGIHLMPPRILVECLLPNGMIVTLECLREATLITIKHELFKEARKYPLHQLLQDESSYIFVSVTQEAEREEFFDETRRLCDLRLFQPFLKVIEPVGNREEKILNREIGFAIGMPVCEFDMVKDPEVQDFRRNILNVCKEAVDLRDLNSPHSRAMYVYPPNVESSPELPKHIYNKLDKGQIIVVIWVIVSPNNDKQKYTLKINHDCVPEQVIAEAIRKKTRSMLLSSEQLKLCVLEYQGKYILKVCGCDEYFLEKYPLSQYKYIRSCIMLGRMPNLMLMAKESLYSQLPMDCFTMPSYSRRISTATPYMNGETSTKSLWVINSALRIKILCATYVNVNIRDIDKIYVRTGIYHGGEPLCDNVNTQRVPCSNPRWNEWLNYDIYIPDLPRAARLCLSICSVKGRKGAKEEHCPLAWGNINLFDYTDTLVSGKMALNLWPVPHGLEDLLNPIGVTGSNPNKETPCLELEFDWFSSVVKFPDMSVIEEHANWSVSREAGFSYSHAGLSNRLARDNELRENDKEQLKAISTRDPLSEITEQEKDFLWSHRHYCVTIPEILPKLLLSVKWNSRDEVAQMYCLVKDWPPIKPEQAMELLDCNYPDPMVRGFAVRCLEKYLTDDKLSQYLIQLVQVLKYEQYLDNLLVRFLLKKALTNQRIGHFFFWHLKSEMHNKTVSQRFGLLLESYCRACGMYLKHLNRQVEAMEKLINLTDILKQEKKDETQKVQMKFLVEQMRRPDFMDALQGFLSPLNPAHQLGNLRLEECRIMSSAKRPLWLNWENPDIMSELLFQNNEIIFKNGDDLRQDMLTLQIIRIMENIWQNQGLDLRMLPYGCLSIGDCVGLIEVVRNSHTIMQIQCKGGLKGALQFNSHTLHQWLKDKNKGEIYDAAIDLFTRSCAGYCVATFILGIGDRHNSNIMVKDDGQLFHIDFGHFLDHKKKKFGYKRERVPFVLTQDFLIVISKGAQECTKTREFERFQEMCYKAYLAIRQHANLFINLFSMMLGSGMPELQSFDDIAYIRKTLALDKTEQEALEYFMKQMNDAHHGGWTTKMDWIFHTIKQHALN
- Sequence (P27986 whole entry partner): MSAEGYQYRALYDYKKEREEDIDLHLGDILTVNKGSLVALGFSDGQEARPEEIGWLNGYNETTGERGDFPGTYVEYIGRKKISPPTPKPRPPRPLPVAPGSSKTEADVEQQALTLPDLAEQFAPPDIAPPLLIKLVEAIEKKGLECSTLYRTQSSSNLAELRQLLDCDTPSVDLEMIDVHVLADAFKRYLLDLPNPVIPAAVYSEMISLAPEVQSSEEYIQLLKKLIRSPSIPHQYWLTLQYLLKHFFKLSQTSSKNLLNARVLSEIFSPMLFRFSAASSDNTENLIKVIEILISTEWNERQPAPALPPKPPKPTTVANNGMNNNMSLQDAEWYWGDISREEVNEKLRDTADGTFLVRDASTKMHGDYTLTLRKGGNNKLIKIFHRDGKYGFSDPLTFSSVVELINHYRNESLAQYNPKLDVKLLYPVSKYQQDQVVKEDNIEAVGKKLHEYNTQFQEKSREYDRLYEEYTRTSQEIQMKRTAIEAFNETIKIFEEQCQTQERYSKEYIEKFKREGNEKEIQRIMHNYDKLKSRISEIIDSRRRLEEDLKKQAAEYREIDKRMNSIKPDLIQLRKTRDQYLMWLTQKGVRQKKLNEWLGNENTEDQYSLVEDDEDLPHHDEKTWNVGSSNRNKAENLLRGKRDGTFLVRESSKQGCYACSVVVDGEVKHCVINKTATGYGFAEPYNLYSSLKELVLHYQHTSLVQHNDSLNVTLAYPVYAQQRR
- experiment_notes: Enzymatic activity assay for recombinant human PI3Kα (ADP-Glo)
- Type: biochemical
- condition_context: 1.2 nM PI3Kα, 20 μM ATP, 80 μM DiC8-PIP2, ADP-Glo
Kindly state IC50 for each of the entries shown.
Please give the number followed by its unit.

The examples below pair each entry with its known result.
INSERT INTO measurements (compound, quantity, val) VALUES
  ('Cc1nc(Nc2cccc(N3CCN(C)C3=O)n2)sc1-c1cc2c(c(S(C)(=O)=O)c1)C(=O)N([C@@H](C)C1CC1)C2 [Example 5]', 'IC50', '38 nM'),
  ('CNS(=O)(=O)c1cc(-c2sc(Nc3cccc(N4CCCOC4=O)n3)nc2C)cc2c1C(=O)N([C@@H](C)C1CC1)C2 [Example 21]', 'IC50', '19 nM');

Query block: Need IC50, item Cc1nc(Nc2cccc(N3CCOC3=O)n2)sc1-c1cc2c(c(S(=O)(=O)NC3COC3)c1)C(=O)N([C@@H](C)C1CC1)C2 [Example 33]
Result block: 472 nM

====

- tested_on: recombinant human PI3Kβ (6-His(p110-p85α)) (Homo sapiens (Human))
- experiment_notes: Enzymatic activity assay for recombinant human PI3Kβ (ADP-Glo)
- condition_context: 1.2 nM PI3Kβ, 20 μM ATP, 80 μM DiC8-PIP2, ADP-Glo
Kindly state pIC50 for each of the entries shown.
Answers are plain numbers, as −log10 of the molar value.

INSERT INTO results (molecule, quantity, val) VALUES
  ('Cc1nc(Nc2cccc(N3CC[C@H](O)C3=O)n2)sc1-c1cc2c(c(S(=O)(=O)NC(C)C)c1)C(=O)N([C@@H](C)C(F)(F)F)C2 [Example 60]', 'pIC50', 6.49),
  ('CNS(=O)(=O)c1cc(-c2sc(Nc3cccc(N4C[C@H](C)NCC4=O)n3)nc2C)cc2c1C(=O)N([C@@H](C)C1CC1)C2 [Example 42]', 'pIC50', 6.54),
  ('Cc1nc(Nc2cccc(N3CCCC3=O)n2)sc1-c1cc2c(c(S(C)(=O)=O)c1)C(=O)N([C@@H](C)C(F)(F)F)C2 [Example 10]', 'pIC50', 6.24),
  ('Cc1nc(Nc2cccc(N3Cc4ncccc4C3=O)n2)sc1-c1cc2c(c(S(C)(=O)=O)c1)C(=O)N([C@@H](C)C1CC1)C2 [Example 9]', 'pIC50', 4.48),
  ('Cc1nc(Nc2cccc(N3CCCC3=O)n2)sc1-c1cc2c(c(S(=O)(=O)NC3COC3)c1)C(=O)N([C@@H](C)C1CC1)C2 [Example 32]', 'pIC50', 5.69),
  ('Cc1nc(Nc2cccc(N3CCOC3=O)n2)sc1-c1cc2c(c(S(C)(=O)=O)c1)C(=O)N([C@@H](C)C(F)(F)F)C2 [Example 12]', 'pIC50', 5.39);

I have 2 molecules here; please give me pIC50 for each one.
1. Cc1nc(Nc2cccc(N3CCOCC3=O)n2)sc1-c1cc2c(c(S(=O)(=O)NC3COC3)c1)C(=O)N([C@@H](C)C1CC1)C2 [Example 31]
2. CCNS(=O)(=O)c1cc(-c2sc(Nc3cccc(N(C)C(=O)COC)n3)nc2C)cc2c1C(=O)N([C@@H](C)C1CC1)C2 [Example 26]

Result block:
1: 6.22; 2: 6.25

====

- tested_on: recombinant human PI3Kβ (6-His(p110-p85α)) (Homo sapiens (Human))
- experiment_notes: Enzymatic activity assay for recombinant human PI3Kβ (ADP-Glo)
- condition_context: 1.2 nM PI3Kβ, 20 μM ATP, 80 μM DiC8-PIP2, ADP-Glo
Kindly state pIC50 for each of the entries shown.
Numbers only, as −log10 of the molar value.

The examples below pair each entry with its known result.
INSERT INTO measurements (smiles_repr, val) VALUES
  ('CNS(=O)(=O)c1cc(-c2sc(Nc3cccc(N4CCNCC4=O)n3)nc2C)cc2c1C(=O)N([C@@H](C)C1CC1)C2', 6.53),
  ('CNS(=O)(=O)c1cc(-c2sc(Nc3cccc(N4CCCCC4=O)n3)nc2C)cc2c1C(=O)N([C@@H](C)C1CC1)C2', 6.77),
  ('CNS(=O)(=O)c1cc(-c2sc(Nc3cccc(N(C)C(C)=O)n3)nc2C)cc2c1C(=O)N([C@@H](C)C1CC1)C2', 5.80);

Let us examine a further case.
Query block: Need pIC50, item CNS(=O)(=O)c1cc(-c2sc(Nc3cccc(N4CCNCCC4=O)n3)nc2C)cc2c1C(=O)N([C@@H](C)C1CC1)C2
Result block: 6.58

====

Kindly state IC50 for each of the entries shown.
- tested_on: recombinant human PI3Kβ (6-His(p110-p85α)) (Homo sapiens (Human), UniProt P42338)
- Sequence (P42338 whole entry): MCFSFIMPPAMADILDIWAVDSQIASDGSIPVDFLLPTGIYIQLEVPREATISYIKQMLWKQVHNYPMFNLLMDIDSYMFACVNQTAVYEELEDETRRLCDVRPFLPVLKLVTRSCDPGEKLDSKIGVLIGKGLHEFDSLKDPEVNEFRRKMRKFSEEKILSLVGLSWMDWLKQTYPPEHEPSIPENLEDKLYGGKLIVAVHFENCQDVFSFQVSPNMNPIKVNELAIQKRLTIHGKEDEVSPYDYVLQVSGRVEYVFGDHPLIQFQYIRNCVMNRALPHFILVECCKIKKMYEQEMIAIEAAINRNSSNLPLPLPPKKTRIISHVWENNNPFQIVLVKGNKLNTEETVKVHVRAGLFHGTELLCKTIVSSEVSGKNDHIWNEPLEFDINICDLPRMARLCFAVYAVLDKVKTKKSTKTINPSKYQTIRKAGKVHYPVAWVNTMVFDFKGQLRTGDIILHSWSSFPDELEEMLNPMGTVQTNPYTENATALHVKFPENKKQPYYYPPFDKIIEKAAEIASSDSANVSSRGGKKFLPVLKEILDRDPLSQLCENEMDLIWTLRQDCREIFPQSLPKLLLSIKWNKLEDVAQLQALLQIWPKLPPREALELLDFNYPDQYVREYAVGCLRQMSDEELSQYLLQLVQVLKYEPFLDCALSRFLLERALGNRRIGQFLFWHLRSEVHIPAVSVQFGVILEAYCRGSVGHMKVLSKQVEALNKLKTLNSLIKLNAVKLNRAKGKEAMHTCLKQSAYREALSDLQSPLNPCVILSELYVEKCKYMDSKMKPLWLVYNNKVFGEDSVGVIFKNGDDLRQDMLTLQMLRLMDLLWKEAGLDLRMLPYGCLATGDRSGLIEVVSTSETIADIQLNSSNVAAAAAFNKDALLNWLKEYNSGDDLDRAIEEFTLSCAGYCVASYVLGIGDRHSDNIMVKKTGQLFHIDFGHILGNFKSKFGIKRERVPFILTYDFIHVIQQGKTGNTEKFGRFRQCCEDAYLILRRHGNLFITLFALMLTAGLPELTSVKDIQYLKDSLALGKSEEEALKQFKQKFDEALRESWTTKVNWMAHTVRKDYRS
- Sequence (P27986 whole entry partner): as the sequence (P27986 whole entry partner) above
- experiment_notes: Enzymatic activity assay for recombinant human PI3Kβ (ADP-Glo)
- condition_context: 1.2 nM PI3Kβ, 20 μM ATP, 80 μM DiC8-PIP2, ADP-Glo
Give bare numbers, in nM.

INSERT INTO assay_data (smiles_repr, val) VALUES
  ('CNS(=O)(=O)c1cc(-c2sc(Nc3cccc(N4C(=O)CNC[C@@H]4C)n3)nc2C)cc2c1C(=O)N([C@@H](C)C1CC1)C2', 800);

I have 7 molecules here; please give me IC50 for each one.
1. Cc1nc(Nc2cccc(N3CCNCC3=O)n2)sc1-c1cc2c(c(S(C)(=O)=O)c1)C(=O)N([C@@H](C)C1CC1)C2
2. CNS(=O)(=O)c1cc(-c2sc(Nc3cccc(N4CCCS4(=O)=O)n3)nc2C)cc2c1C(=O)N([C@@H](C)C1CC1)C2
3. Cc1nc(Nc2cccc(N3CCNC3=O)n2)sc1-c1cc2c(c(S(=O)(=O)NC(C)C)c1)C(=O)N([C@@H](C)C(F)(F)F)C2
4. CCOCC(=O)N(C)c1cccc(Nc2nc(C)c(-c3cc4c(c(S(=O)(=O)NC)c3)C(=O)N([C@@H](C)C3CC3)C4)s2)n1
5. Cc1nc(Nc2cccc(N3CCOC3=O)n2)sc1-c1cc2c(c(S(=O)(=O)NC3COC3)c1)C(=O)N([C@@H](C)C1CC1)C2
6. CNS(=O)(=O)c1cc(-c2sc(Nc3cccc(N4C(=O)CC[C@@H]4CO)n3)nc2C)cc2c1C(=O)N([C@@H](C)C1CC1)C2
7. CCNS(=O)(=O)c1cc(-c2sc(Nc3cccc(N4CCOCC4=O)n3)nc2C)cc2c1C(=O)N([C@@H](C)C(F)(F)F)C2

Result block:
729
897
722
677
3420
998
178

I have 3 molecules here; please give me IC50 for each one.
1. CNS(=O)(=O)c1cc(-c2sc(Nc3cccc(N4CC(=O)N5CCC[C@H]5C4=O)n3)nc2C)cc2c1C(=O)N([C@@H](C)C1CC1)C2
2. Cc1nc(Nc2cccc(N3CCN(C)C3=O)n2)sc1-c1cc2c(c(S(C)(=O)=O)c1)C(=O)N([C@@H](C)C1CC1)C2
3. CNS(=O)(=O)c1cc(-c2sc(Nc3cccc(N4CC[C@H](O)C4=O)n3)nc2C)cc2c1C(=O)N([C@@H](C)C1CC1)C2

Result block:
[4880, 4710, 249]

I have 2 molecules here; please give me IC50 for each one.
1. CNS(=O)(=O)c1cc(-c2sc(Nc3cccc(N(C)C(=O)COC)n3)nc2C)cc2c1C(=O)N([C@@H](C)C1CC1)C2
2. CNS(=O)(=O)c1cc(-c2sc(Nc3cccc(N4CCOCC4=O)n3)nc2C)cc2c1C(=O)N([C@@H](C)C(C)(C)C)C2

Result block:
724
10400

====

- tested_on: recombinant human PI3Kα (6-His(p110-p85α)) (Homo sapiens (Human))
- experiment_notes: Enzymatic activity assay for recombinant human PI3Kα (ADP-Glo)
- condition_context: 1.2 nM PI3Kα, 20 μM ATP, 80 μM DiC8-PIP2, ADP-Glo
Kindly apply the following: class 1 if IC50 is less than 40 nM, class 0 in every other case.

Worked examples follow.
INSERT INTO assay_data (compound, group) VALUES
  ('CNS(=O)(=O)c1cc(-c2sc(Nc3cccc(N4CCN[C@@H](C)C4=O)n3)nc2C)cc2c1C(=O)N([C@@H](C)C1CC1)C2 [Example 44]', 'class 0'),
  ('CNS(=O)(=O)c1cc(-c2sc(Nc3cccc(N4CCCS4(=O)=O)n3)nc2C)cc2c1C(=O)N([C@@H](C)C1CC1)C2 [Example 24]', 'class 0'),
  ('CNS(=O)(=O)c1cc(-c2sc(Nc3cccc(N(C)C(=O)[C@@H](C)OC)n3)nc2C)cc2c1C(=O)N([C@@H](C)C1CC1)C2 [Example 15]', 'class 0');

Query block: State whether 40 nM exceeds IC50 recorded for CNS(=O)(=O)c1cc(-c2sc(Nc3cccc(N4C(=O)CNC[C@H]4C)n3)nc2C)cc2c1C(=O)N([C@@H](C)C1CC1)C2 [Example 46] .
Result block: class 1

Query block: Now consider CNS(=O)(=O)c1cc(-c2sc(Nc3cccc(N4C[C@H](C)NCC4=O)n3)nc2C)cc2c1C(=O)N([C@@H](C)C1CC1)C2 [Example 42] .
Result block: class 0

Origin of measurements: patent US10961236B2
